System: E. coli (ATCC BAA-2340)
Type: cell-based, Escherichia coli
Where a SMILES comes first, the peptide text is derived from it.
readout_type: MBC
Quick note: number first, unit second.

Request: Which MBC value is on record for CC[C@H](C)[C@H](NC(=O)[C@@H](NC(=O)CN)C(C)C)C(=O)N[C@H](C(=O)N[C@@H](CCCCN)C(=O)N[C@H](C(=O)N[C@@H](CC(C)C)C(=O)N[C@@H](CCCCN)C(=O)NCC(=O)N[C@@H](C)C(=O)N[C@@H](C)C(=O)N[C@@H](CCCCN)C(=O)N[C@H](C(=O)N[C@H](C(=O)N[C@@H](C)C(=O)N[C@@H](C)C(=O)N[C@@H](CCCCN)C(=O)N[C@@H](CC(C)C)C(=O)N[C@@H](CC(C)C)C(N)=O)C(C)C)[C@@H](C)O)[C@@H](C)O)[C@@H](C)CC [tB2U-K] (H-GVIIKTLKGAAKTVAAKLL-NH2) ?
Result: 16 µM

====

System: E. coli (ATCC BAA-2340)
Type: cell-based, Escherichia coli
Where a SMILES comes first, the peptide text is derived from it.
readout_type: MBC

Here's what some known entries look like.
CC[C@H](C)[C@H](NC(=O)[C@@H](NC(=O)CN)C(C)C)C(=O)N[C@H](C(=O)N[C@@H](CCCCN)C(=O)N[C@@H](CCCCN)C(=O)N[C@@H](CC(C)C)C(=O)N[C@@H](CCCCN)C(=O)NCC(=O)N[C@@H](C)C(=O)N[C@@H](C)C(=O)N[C@@H](CCCCN)C(=O)N[C@@H](CCCCN)C(=O)N[C@H](C(=O)N[C@@H](C)C(=O)N[C@@H](C)C(=O)N[C@@H](CCCCN)C(=O)N[C@@H](CC(C)C)C(=O)N[C@@H](CC(C)C)C(N)=O)C(C)C)[C@@H](C)CC [tB2U-6K] (H-GVIIKKLKGAAKKVAAKLL-NH2)    8 µM
CC[C@H](C)[C@H](NC(=O)[C@@H](NC(=O)CN)C(C)C)C(=O)N[C@H](C(=O)N[C@@H](CCCCN)C(=O)N[C@H](C(=O)N[C@@H](CC(C)C)C(=O)N[C@@H](CCCCN)C(=O)NCC(=O)N[C@@H](C)C(=O)N[C@@H](C)C(=O)N[C@@H](CCCCN)C(=O)N[C@H](C(=O)N[C@H](C(N)=O)C(C)C)[C@@H](C)O)[C@@H](C)O)[C@@H](C)CC [Peptide 14-tB2U-K] (H-GVIIKTLKGAAKTV-NH2)    >512 µM
CC[C@H](C)[C@H](NC(=O)[C@@H](NC(=O)CN)C(C)C)C(=O)N[C@H](C(=O)N[C@@H](CCCCN)C(=O)N[C@H](C(=O)N[C@@H](CC(C)C)C(N)=O)[C@@H](C)O)[C@@H](C)CC [Peptide 7-tB2U-K] (H-GVIIKTL-NH2)    >512 µM

Next compound, please.
Request: Which MBC value is on record for CC[C@H](C)[C@H](NC(=O)[C@@H](NC(=O)CN)C(C)C)C(=O)N[C@H](C(=O)N[C@@H](CC(=O)O)C(=O)N[C@H](C(=O)N[C@@H](CC(C)C)C(=O)N[C@@H](CCCCN)C(=O)NCC(=O)N[C@@H](C)C(=O)N[C@@H](C)C(=O)N[C@@H](CCCCN)C(=O)N[C@H](C(=O)N[C@H](C(=O)N[C@@H](C)C(=O)N[C@@H](C)C(=O)N[C@@H](CCC(=O)O)C(=O)N[C@@H](CC(C)C)C(=O)N[C@@H](CC(C)C)C(N)=O)C(C)C)[C@@H](C)O)[C@@H](C)O)[C@@H](C)CC [tB2U-α] (H-GVIIDTLKGAAKTVAAELL-NH2) ?
Result: >512 µM

====

Tested on: C. albicans (ATCC CRM 10231)
Format: cell-based, Candida albicans
Where a SMILES comes first, the peptide text is derived from it.
readout_type: MBC (µM)
Only the number, expressed in µM, is required.

Request: Which MBC value is on record for CC[C@H](C)[C@H](NC(=O)[C@@H](NC(=O)CN)C(C)C)C(=O)N[C@H](C(=O)N[C@@H](CCCCN)C(=O)N[C@H](C(=O)N[C@@H](CC(C)C)C(=O)N[C@@H](CCCCN)C(=O)NCC(=O)N[C@@H](C)C(=O)N[C@@H](C)C(=O)N[C@@H](CCCCN)C(=O)N[C@H](C(=O)N[C@H](C(=O)N[C@@H](C)C(=O)N[C@@H](C)C(=O)N[C@@H](CCCCN)C(=O)N[C@@H](CC(C)C)C(=O)N[C@@H](CC(C)C)C(N)=O)C(C)C)[C@@H](C)O)[C@@H](C)O)[C@@H](C)CC [tB2U-K] (H-GVIIKTLKGAAKTVAAKLL-NH2) ?
Result: 64

====

Tested on: horse red cells (defibrinated horse blood)
Experiment: Haemolysis assay
Type: cell-based
Conditions: 2% (v/v) horse red cell suspension mixed 1:1 with peptide in PBS, 37 ℃ 2 h, absorbance 570 nm, 0.1% Triton X-100 positive control; nine replicates from three independent tests
Where a SMILES comes first, the peptide text is derived from it.
readout_type: HC50

Request: Which HC50 value is on record for CC[C@H](C)[C@H](NC(=O)[C@@H](NC(=O)CN)C(C)C)C(=O)N[C@H](C(=O)N[C@@H](CCCCN)C(=O)N[C@H](C(=O)N[C@@H](CC(C)C)C(N)=O)[C@@H](C)O)[C@@H](C)CC [Peptide 7-tB2U-K] (H-GVIIKTL-NH2) ?
Result: 11,008 μM

====

System: P. aeruginosa (ATCC CRM 9027)
Type: cell-based, Pseudomonas aeruginosa
Where a SMILES comes first, the peptide text is derived from it.
Parameter: MIC. Scope: all listed entries.
Only the number, expressed in µM, is required.

Request: Which MIC value is on record for CC[C@H](C)[C@H](NC(=O)[C@@H](NC(=O)CN)C(C)C)C(=O)N[C@H](C(=O)N[C@@H](CCCCN)C(=O)N[C@@H](CCCCN)C(=O)N[C@@H](CC(C)C)C(=O)N[C@@H](CCCCN)C(=O)NCC(=O)N[C@@H](C)C(=O)N[C@@H](C)C(=O)N[C@@H](CCCCN)C(=O)N[C@@H](CCCCN)C(=O)N[C@H](C(=O)N[C@@H](C)C(=O)N[C@@H](C)C(=O)N[C@@H](CCCCN)C(=O)N[C@@H](CC(C)C)C(=O)N[C@@H](CC(C)C)C(N)=O)C(C)C)[C@@H](C)CC [tB2U-6K] (H-GVIIKKLKGAAKKVAAKLL-NH2) ?
Result: 16

Request: Which MIC value is on record for CC[C@H](C)[C@H](NC(=O)[C@@H](NC(=O)CN)C(C)C)C(=O)N[C@H](C(=O)N[C@@H](CCCCN)C(=O)N[C@H](C(=O)N[C@@H](CC(C)C)C(=O)N[C@@H](CCCCN)C(=O)NCC(=O)N[C@@H](C)C(=O)N[C@@H](C)C(=O)N[C@@H](CCCCN)C(=O)N[C@H](C(=O)N[C@H](C(=O)N[C@@H](C)C(=O)N[C@@H](C)C(=O)N[C@@H](CCCCN)C(=O)N[C@@H](CC(C)C)C(=O)N[C@@H](CC(C)C)C(N)=O)C(C)C)[C@@H](C)O)[C@@H](C)O)[C@@H](C)CC [tB2U-K] (H-GVIIKTLKGAAKTVAAKLL-NH2) ?
Result: 32

====

System: P. aeruginosa (ATCC CRM 9027)
Type: cell-based, Pseudomonas aeruginosa
Where a SMILES comes first, the peptide text is derived from it.
readout_type: MIC

CC[C@H](C)[C@H](NC(=O)[C@@H](NC(=O)CN)C(C)C)C(=O)N[C@H](C(=O)N[C@@H](CCCCN)C(=O)N[C@H](C(=O)N[C@@H](CC(C)C)C(N)=O)[C@@H](C)O)[C@@H](C)CC [Peptide 7-tB2U-K] (H-GVIIKTL-NH2)    >512 µM
CC[C@H](C)[C@H](NC(=O)[C@@H](NC(=O)CN)C(C)C)C(=O)N[C@H](C(=O)N[C@@H](CCCCN)C(=O)N[C@H](C(=O)N[C@@H](CC(C)C)C(=O)N[C@@H](CCCCN)C(=O)NCC(=O)N[C@@H](C)C(=O)N[C@@H](C)C(=O)N[C@@H](CCCCN)C(=O)N[C@H](C(=O)N[C@H](C(N)=O)C(C)C)[C@@H](C)O)[C@@H](C)O)[C@@H](C)CC [Peptide 14-tB2U-K] (H-GVIIKTLKGAAKTV-NH2)    >512 µM

Next compound, please.
Request: Which MIC value is on record for CC[C@H](C)[C@H](NC(=O)[C@@H](NC(=O)CN)C(C)C)C(=O)N[C@H](C(=O)N[C@@H](CC(=O)O)C(=O)N[C@H](C(=O)N[C@@H](CC(C)C)C(=O)N[C@@H](CCCCN)C(=O)NCC(=O)N[C@@H](C)C(=O)N[C@@H](C)C(=O)N[C@@H](CCCCN)C(=O)N[C@H](C(=O)N[C@H](C(=O)N[C@@H](C)C(=O)N[C@@H](C)C(=O)N[C@@H](CCC(=O)O)C(=O)N[C@@H](CC(C)C)C(=O)N[C@@H](CC(C)C)C(N)=O)C(C)C)[C@@H](C)O)[C@@H](C)O)[C@@H](C)CC [tB2U-α] (H-GVIIDTLKGAAKTVAAELL-NH2) ?
Result: >512 µM
